- measured_on: T1, Boi2, P39969
- T1 sequence (P39969 32-116, looked up): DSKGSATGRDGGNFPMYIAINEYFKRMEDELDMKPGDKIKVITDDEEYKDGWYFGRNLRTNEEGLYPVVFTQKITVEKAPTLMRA
- assay: SPOT array
- settings: median of control spots 1161
Form field: SPOT intensity (one value per entry).
Just the number.

Here are 8 binders together with their reported answers.
HAPPLPPTAPPPPSL :: 0
NENKKLPPAPTVFGL :: 0
GRLRPKRIAPWHLIQ :: 1
NFKRLLPRDPSEKSS :: 2
KRKRRLPVSEDTNTK :: 2
WTQRRGPLVVYAEDN :: 0
RRARRQMGIPTISQV :: 1
DFTLPPPPPPPGLDE :: 0

Next binder, SPOT intensity to be filled in.
Req: Entry under review: DKSRPPRPPPKPLHL . Reported SPOT intensity?
Resp: 0

Data origin: paper PMC2756588
